Field: inhibition. Provide a value for each of the compounds that follow.
molecular target: L-lactate dehydrogenase (Plasmodium falciparum (isolate CDC / Honduras)) (UniProt Q27743); assay: PfLDH activity inhibition – cell lysate, 3D7 strain, counter-screen for P. falciparum growth inhibition project (AID 2304);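 also: 0% = vehicle and 100% = reference inhibitor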; conditions: P. falciparum 3D7 crude extract, LDH APAD/NBT absorbance; at 2 µM; stronger effect = higher value
Sequence (Q27743 whole entry, looked up): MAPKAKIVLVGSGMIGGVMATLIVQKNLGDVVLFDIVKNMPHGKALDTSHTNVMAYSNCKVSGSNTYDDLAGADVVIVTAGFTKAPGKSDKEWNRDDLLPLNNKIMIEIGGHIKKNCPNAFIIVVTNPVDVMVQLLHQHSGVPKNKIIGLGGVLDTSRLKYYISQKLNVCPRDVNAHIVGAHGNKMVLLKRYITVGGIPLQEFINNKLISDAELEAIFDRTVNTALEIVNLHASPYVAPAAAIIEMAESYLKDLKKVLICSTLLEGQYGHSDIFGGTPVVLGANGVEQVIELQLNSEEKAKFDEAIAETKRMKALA
Answers are plain numbers, in %.

Below: 3 compounds and their reported inhibition.
compound="Cc1cc(C)cc(OCC(O)CN(Cc2cc(Cl)cc(Cl)c2)C(=O)Nc2ccc([N+](=O)[O-])cc2)c1 (centres undefined)" readoutnumber=4
compound="COc1ccc(NC(=O)NCC2CCCN(CCCCCNC(=O)/C=C/c3ccc(Cl)c(Cl)c3)C2)c(OC)c1 (centres undefined)" readoutnumber=-6
compound="CC1CC(C)CN(CC(O)CNC(=O)Nc2ccc(Br)cc2)C1 (centres undefined)" readoutnumber=5

Could you report inhibition for every entry in the following list?
1. C=CCOC(=O)N1CCC(CNCc2ccc(-c3ccc(-c4nc5ccc(C(F)(F)F)cc5[nH]4)cc3)cc2)C1 (centres undefined)
2. O=C(N[C@H]1CCN(Cc2ccc(OCCN3CCNCC3)c3ccccc23)C1)c1ccc(Cl)c(Cl)c1
3. COc1ccc(NCCCNc2ccnc3ccccc23)cc1
4. Nc1ncc(-c2ccc(Cl)c(Cl)c2)c(N)n1

-2
-2
2
-2

Batch request: inhibition for each of the following compounds.
1. CC(=O)Nc1nc(C(=O)Nc2cccc(-c3ccc(-c4nc5ccccc5[nH]4)cc3)c2)cs1
2. Cc1cccc2[nH]c(-c3ccc(-c4ccc(CNC(C)C)cc4)cc3)nc12

1. -2
2. 0

Hey, quick one: what's inhibition for each of these?
1. CC1(CCc2ccccc2)N=C(Nc2ccc(Cl)cc2)N=C(N)C1c1ccc(Cl)c(Cl)c1 (centres undefined)
2. Cc1ccc(C(=O)NC2CCN(CCNC(=O)Nc3cc(C)nc4ccccc34)CC2)cc1
3. Cc1cccc(-c2ccc(CNC3CCN(CC4Cn5c(=O)ccc6ccc(F)c4c65)CC3)cn2)c1 (centres undefined)

1: -6; 2: -8; 3: -2

====

Exercise: state measured growth inhibition for each of the molecules provided.
assay: inhibition of 3D7 malaria parasite growth – strain 3D7 (AID 2306);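 also: 0% = DMSO wells and 100% = chloroquine plus artemisinin control wells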; settings: P. falciparum 3D7 erythrocytic growth, LDH absorbance, 72 h; at 2 µM; stronger effect = higher value
Answers are plain numbers, in %.

In the examples that follow, each entry is paired with its recorded growth inhibition.
molecule="CCCCCN1CCCC(CNS(=O)(=O)c2cccc(C(=O)Nc3ccc(C(F)(F)F)cc3)c2)C1 (stereo not given)" measureunit=% readoutnumber=96
molecule=NC1=NCN(OCc2ccc(Cl)c(Cl)c2)C(N)=N1 measureunit=% readoutnumber=95
molecule=O=C(Nc1ccc(-c2csc3nccn23)cc1)c1ccc(Cl)cc1 measureunit=% readoutnumber=100
molecule=CN(C)CCNC(=O)[C@H](CC1CCCCC1)NC(=O)c1ccc(O)c(-c2ccc(Cl)c(Cl)c2)c1 measureunit=% readoutnumber=98
molecule=FC(F)(F)c1ccc2nc(-c3ccc(-c4cccc(CN5CCCCC5)c4)cc3)[nH]c2c1 measureunit=% readoutnumber=100

Fill in growth inhibition for each of the 5 molecules listed.
1. Cc1cc(NN=Cc2ccccc2)c2cc(C(F)(F)F)ccc2n1
2. CN1CCN(CCCCNc2c3ccccc3nc3ccccc23)CC1
3. O=C(N[C@@H](Cc1ccccc1)C(=O)NCc1cccc2ccccc12)c1ccc(O)c(-c2ccc(Cl)c(Cl)c2)c1
4. N#CN1CC[C@H](CS(=O)(=O)c2cccc(Br)c2)C1
5. FC(F)(F)c1ccc2nc(-c3ccc(-c4ccc(CNCCc5ccncc5)cc4)cc3)[nH]c2c1

1. 101
2. 101
3. 101
4. 88
5. 100

====

Please provide measured inhibition for the entries that follow.
experiment: HepG2 cytotoxicity, primary screen, cytotoxicity control for P. falciparum antimalarial project, cell-based, ATP luminescence (AID 2303); settings: HepG2 viability, 24-48 h, at 10 µM, stronger effect = higher value;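 also: 0% = DMSO wells and 100% = digitonin-killed cells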
Give bare numbers, in %.

compound=COC(=O)C(c1ccc(NC(=O)[C@H](CC(C)C)NC(=O)OC(C)(C)C)cc1)c1ccc(NC(=O)[C@H](CC(C)C)NC(=O)OC(C)(C)C)cc1 readoutnumber=0

Would you mind listing inhibition for each of the following compounds?
1. CCCNC[C@@H](O)[C@H](Cc1ccccc1)NC(=O)c1cc(NCC)cc(N2CCCC2=O)c1
2. COc1ccc(NC(=O)c2ccc3[nH]c(-c4ccc(Cl)cc4)cc3c2)cc1OCCN(C)C
3. NC(N)=NN=CC(=O)Nc1ccc(C(F)(F)F)cc1
4. OC1CCCN(Cc2cccc(-c3ccc(-c4nc5ccccc5[nH]4)cc3)c2)C1 (centres undefined)
5. CCCCOc1ccc(C(=O)C(CCC(CNC(C)(C)C)C(=O)c2ccc(OCCCC)cc2)CNC(C)(C)C)cc1 (centres undefined)
6. Cc1ccoc1C(=O)Nc1ccc(-c2cccc(-c3nc4c(C)cccc4[nH]3)c2)cc1

-9
32
5
25
100
15

# per-item lookup of inhibition; items listed below
1. Fc1cccc(Nc2nc(NCc3ccc4ccsc4c3)nc(Nc3cccc(F)c3)n2)c1
2. COc1ccc(-c2ccccc2OCCCNc2nc(NCCc3ccc(O)cc3)nc(N3CCNCC3)n2)cc1

[-2, 36]

====

experiment: antimalarial activity against Dd2 strain (AID 2302);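 also: 0% = DMSO untreated growth and 100% = chloroquine plus artemisinin killed control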; details: P. falciparum Dd2 in RBCs, LDH growth readout, 72 h; at 2 µM
Activity calls are given as the source filed them.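 Rule for the calls: active = growth inhibition above 50% at the single 2 µM test dose, taken to imply half-maximal potency below 2 µM; inactive = the rest.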
The categories you may choose from are class 1 (active), class 0 (inactive)

Previously resolved entries follow.
compound=O=C(Nc1ccc(Cl)cc1)Nc1ccc2nonc2c1 labelclass="class 1"
compound=Cc1cc(CNCCCCCCNCc2cccc([N+](=O)[O-])c2)ccc1O labelclass="class 0"
compound=CN(C)c1ccc(N=C2N=C(Nc3ccc(N(C)C)cc3)c3ccccc32)cc1 labelclass="class 0"
compound=O=C(Nc1ccc(-c2cccc(-c3nc4ccc(C(F)(F)F)cc4[nH]3)c2)cc1)c1ccncc1 labelclass="class 0"
compound=Cc1cccc2[nH]c(-c3ccc(-c4ccc(C(=O)NCCN5CCCC5)cc4)s3)nc12 labelclass="class 0"

What did this assay record as the result for COc1cc2nc(N3CCC(CNC(=O)c4ccc(-c5ccc(C#N)cc5)cc4)CC3)nc(N)c2cc1OC ?
class 1

Note, next up: CCc1c(CCNCCCCCCNCCc2ccc([N+](=O)[O-])cc2)ccc(OC)c1OC
class 0

// repeat for COc1cc(NC2CCCC(NCc3cn(S(=O)(=O)c4ccccc4)c4ccccc34)C2)nc2ccccc12 (stereo unspecified) and report
class 1

====

test: antimalarial activity against Dd2 strain (AID 2302);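 also: 0% = DMSO untreated growth and 100% = chloroquine plus artemisinin killed control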; details: P. falciparum Dd2 in RBCs, LDH growth readout, 72 h; at 2 µM
The source made the active and inactive calls.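 The calls were made as follows: active = growth inhibition above 50% at the single 2 µM test dose, taken to imply half-maximal potency below 2 µM; inactive = the rest.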
Response enum: yes for active, no for inactive

Example results:
compound=O=C(Nc1ccc2c(c1)CCC2)N[C@H]1CCN(Cc2ccc(OCCCN3CCCCC3)cc2)C1 labelclass=no
compound=O=c1cc(NCCCNCc2ccc(Cl)c(Cl)c2)[nH]c2cc(F)cc(F)c12 labelclass=yes
compound=COc1cc2nc(C)nc(Nc3ccc(Cc4ccccc4)cc3)c2cc1OC labelclass=yes
compound=C[C@@H]1CN(c2cnn(C/C=C/c3ccc(NC(=O)c4ccc5nonc5c4)cc3)c(=O)c2Cl)C[C@H](C)N1 labelclass=no
compound=COc1ccc(C=NNc2cc(C)nc3ccc(OC)cc23)c(OC)c1 labelclass=yes
compound=CS(=O)(=O)CCNCc1nc(-c2ccc3ncnc(Nc4ccc(OCc5ccccc5)c(Cl)c4)c3c2)cs1 labelclass=yes

Which outcome was assigned to CCOC(=O)c1ccc2nc(-c3ccc(C(=O)NCc4ccc(C(C)(C)C)cc4)cc3)[nH]c2c1 in this test?
no

Next up: O=C(NCCc1ccccc1)N(Cc1ccccc1-c1ccc(CNCCc2ccccc2)cc1)C1CCN(Cc2ccccc2)CC1
yes

Same question, COc1cccc(CNC(=O)NC2CCN(c3ccnc(Nc4ccc(F)cc4)n3)C2)c1 (centres undefined) this time
yes

====

experiment: antimalarial activity against Dd2 strain (AID 2302);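 also: 0% = DMSO untreated growth and 100% = chloroquine plus artemisinin killed control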; settings: P. falciparum Dd2 in RBCs, LDH growth readout, 72 h; at 2 µM
Calls of active or inactive are those of the source.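 The calls were made as follows: active = growth inhibition above 50% at the single 2 µM test dose, taken to imply half-maximal potency below 2 µM; inactive = the rest.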
Answer with one of the outcomes given here: active, inactive

compound=Cc1ccc(Nc2nc(NN=Cc3ccc(-c4ccc([N+](=O)[O-])cc4)o3)nc(N3CCOCC3)n2)cc1Cl labelclass=inactive
compound=Clc1ccc(-n2cnc3c(Nc4ccc(Oc5ccccc5)cc4)ncnc32)cc1Cl labelclass=active
compound=CC(C)c1ccc(NC(=O)c2ccc(CN3CCCN(Cc4cccc(Cl)c4)CC3)cc2)cc1 labelclass=inactive
compound=CC(C)CN1CCN(CCNc2c3ccccc3nc3ccccc23)CC1 labelclass=active
compound="Cc1ccccc1C1CCN(C2CCC(NC(=O)c3ccc(-c4cc(C(F)(F)F)nn4C)s3)CC2)CC1 (stereo not given)" labelclass=active

Field: outcome | Entry: Cc1ccc(C)c(C2CCN(CCCCNC(=O)c3ccc(NC(=O)c4ccc(Cl)cc4)cc3)CC2)c1
inactive

Also Cc1ccc(Nc2nc(NN=Cc3ccccc3[N+](=O)[O-])nc(Nc3ccc([N+](=O)[O-])cc3)n2)cc1C , if possible.
active

Now consider CC(=O)Nc1ccc(S(=O)(=O)Nc2ccc(Nc3nc(C)cc(N4CCCCC4)n3)cc2)cc1 and answer again.
active

Follow-up entry: COc1ccc(CNCCCCCCNCc2ccc(OC)c3ccccc23)c2ccccc12
inactive

Try this compound next: Oc1ccc(Cl)c2c1C(c1ccccc1)=NCC2
inactive

Try this compound next: COc1ccccc1N1CCN(CCCCNC(=O)c2ccc(NC(=O)c3ccc(OC(F)(F)F)cc3)cc2)CC1
inactive

Try COc1ccc(C2CC(=O)C3=C(C2)NC(C)=C(C(=O)OC2CCCC2)C3c2cccc(O)c2)cc1OC (stereo not given) next.
active

Record: Oc1ccc2ccccc2c1CNCCC1CCCCC1
active

Can you handle CCC(=O)NC(c1ccco1)c1cc(Cl)c2cccnc2c1O (stereo not given) next?
active

Cool, now CN1CCN(c2cccc(-c3nnc(-c4ccc(OCC(=O)NCc5cccc(C(F)(F)F)c5)c([N+](=O)[O-])c4)o3)c2)CC1
active

Same read-out for Clc1cc2c(Nc3ccc(Oc4ccccc4)cc3)ccnc2cc1-c1ccc(CNCCN2CCOCC2)o1 ?
active

Entry COc1cc(Nc2ccnc3ccc(C(C)(C)C)cc23)cc(OC)c1OC please
active

// same read-out, input: Cc1ccccc1C1CCN(C2CCC(NC(=O)C3=Cc4cc(Cl)ccc4OC3)CC2)CC1 (stereo not given)
active

// query: COc1ccc2sc(CNCCCNc3cc(=O)c4ccccc4[nH]3)c(Cl)c2c1
inactive

# iterate: COc1cc2c(=O)c(Cc3ccc(Cl)cc3)c(C)[nH]c2cc1F
inactive
